CONDITIONS: human gut metagenome, 24 h, 2 µM; further: call rule not given here
MEASUREMENT_TYPE: Bacterial Biotransformation

{"MOLECULE": "COc1ccccc1OCCNCC(O)COc1cccc2[nH]c3ccccc3c12 (stereo not drawn)", "MEASUREMENT_TYPE": "Bacterial Biotransformation", "OBSERVED": "Compound NOT metabolized"}
{"MOLECULE": "O=P1(N(CCCl)CCCl)NCCCO1 (stereo not drawn) [CYCLOPHOSPHAMIDE ANHYDROUS]", "MEASUREMENT_TYPE": "Bacterial Biotransformation", "OBSERVED": "Compound NOT metabolized"}
{"MOLECULE": "CC(C)(C)N.CCC[C@H](N[C@@H](C)C(=O)N1[C@H](C(=O)O)C[C@@H]2CCCC[C@@H]21)C(=O)OCC", "MEASUREMENT_TYPE": "Bacterial Biotransformation", "OBSERVED": "Compound NOT metabolized"}
{"MOLECULE": "CCCCCNC(=N)N/N=C/c1c[nH]c2ccc(OC)cc12.O=C(O)/C=C\\C(=O)O [TEGASEROD MALEATE]", "MEASUREMENT_TYPE": "Bacterial Biotransformation", "OBSERVED": "Compound NOT metabolized"}

[Q] State the recorded Bacterial Biotransformation for this entry: "COc1ccc2c(c1)c(CC(=O)O)c(C)n2C(=O)c1ccc(Cl)cc1"
[A] Compound metabolized

[Q] Repeat with CCN(CC)CCNC(=O)c1cc(S(C)(=O)=O)ccc1OC [TIAPRIDE]
[A] Compound NOT metabolized

[Q] Repeat with "Nc1nnc(-c2cccc(Cl)c2Cl)c(N)n1"
[A] Compound NOT metabolized

[Q] Repeat with "CNCC[C@H](Oc1cccc2ccccc12)c1cccs1"
[A] Compound metabolized

[Q] Repeat with "CCN(C(C)=O)c1cccc(-c2ccnc3c(C#N)cnn23)c1"
[A] Compound metabolized

[Q] Repeat with "CCCN(CCC)CCc1cccc2c1CC(=O)N2"
[A] Compound NOT metabolized

[Q] Repeat with Cc1nc(Nc2ncc(C(=O)Nc3c(C)cccc3Cl)s2)cc(N2CCN(CCO)CC2)n1 [DASATINIB ANHYDROUS]
[A] Compound NOT metabolized

[Q] Repeat with COc1ccc(C(CN(C)C)C2(O)CCCCC2)cc1 (stereo not drawn)
[A] Compound NOT metabolized

[Q] Repeat with "CC[C@@]1(O)C(=O)OCc2c1cc1n(c2=O)Cc2cc3c(CN(C)C)c(O)ccc3nc2-1"
[A] Compound NOT metabolized

====

CONDITIONS: human gut metagenome, 24 h, 2 µM
MEASUREMENT_TYPE: Bacterial Biotransformation

Below, 8 compounds whose answers are already recorded.
{"COMPOUND": "C[C@]12C=CC(=O)C=C1CC[C@@H]1[C@@H]2C(=O)C[C@@]2(C)[C@H]1CC[C@]2(O)C(=O)CO", "Bacterial Biotransformation": "Compound metabolized"}
{"COMPOUND": "CCN(C)C(=O)Oc1cccc([C@H](C)N(C)C)c1.O=C(O)C(O)C(O)C(=O)O [RIVASTIGMINE TARTRATE]", "Bacterial Biotransformation": "Compound NOT metabolized"}
{"COMPOUND": "CC(N)C12CC3CC(CC(C3)C1)C2 (stereo not drawn)", "Bacterial Biotransformation": "Compound NOT metabolized"}
{"COMPOUND": "Cc1ccccc1C(OCCN(C)C)c1ccccc1.O=C(O)CC(O)(CC(=O)O)C(=O)O (stereo not drawn) [ORPHENADRINE CITRATE]", "Bacterial Biotransformation": "Compound NOT metabolized"}
{"COMPOUND": "CCOC(=O)[C@H](CCc1ccccc1)N[C@@H](C)C(=O)N1CCC[C@H]1C(=O)O.O=C(O)/C=C\\C(=O)O [ENALAPRIL MALEATE]", "Bacterial Biotransformation": "Compound NOT metabolized"}
{"COMPOUND": "CCOC(=O)C1=C[C@]2(CC)CCCN3CCc4c(n1c1ccccc41)[C@@H]32", "Bacterial Biotransformation": "Compound NOT metabolized"}
{"COMPOUND": "CC(C)C[C@H]1C(=O)N2CCC[C@H]2[C@]2(O)O[C@](NC(=O)[C@@H]3C=C4c5cccc6[nH]c(Br)c(c56)C[C@H]4N(C)C3)(C(C)C)C(=O)N12.CS(=O)(=O)O [BROMOCRIPTINE MESYLATE]", "Bacterial Biotransformation": "Compound NOT metabolized"}
{"COMPOUND": "O=C1CC2(CCCC2)CC(=O)N1CCCCN1CCN(c2ncccn2)CC1", "Bacterial Biotransformation": "Compound metabolized"}

[Q] State the recorded Bacterial Biotransformation for this entry: COC(=O)C(c1ccccc1)C1CCCCN1 (stereo not drawn) [METHYLPHENIDATE]
[A] Compound NOT metabolized

[Q] Repeat with "CN[C@H]1CC[C@@H](c2ccc(Cl)c(Cl)c2)c2ccccc21"
[A] Compound metabolized

[Q] Repeat with Br.CN1CCC[C@@H]1Cc1c[nH]c2ccc(CCS(=O)(=O)c3ccccc3)cc12 [ELETRIPTAN HYDROBROMIDE]
[A] Compound NOT metabolized

[Q] Repeat with CCOC(=O)C1=C(C)NC(C)=C(C(=O)OC)C1c1cccc([N+](=O)[O-])c1 (stereo not drawn)
[A] Compound metabolized

[Q] Repeat with O=C1N=C([O-])NC1(c1ccccc1)c1ccccc1.[Na+] [PHENYTOIN SODIUM]
[A] Compound metabolized
